This collection of values is drawn from ChEMBL document CHEMBL1146380.

We begin with a simple list: items and their reported MBC.
System: Pseudomonas aeruginosa
Assay: Antimicrobial activity against Pseudomonas aeruginosa ATCC 27853 by broth microdilution method
Format: functional
Kindly write the number and append the unit.

Would you please look over these solved cases?
>>> result("CN(C)c1ccc(CNC(=O)c2ccoc2)cc1")
"160 µg/mL"
>>> result("Cc1ccc(S(=O)(=O)NNC(=O)c2ccoc2)cc1")
"320 µg/mL"
>>> result("O=C(Nc1nc[nH]n1)c1ccoc1")
"320 µg/mL"
>>> result("O=C(Nc1ccccc1O)c1ccoc1")
"160 µg/mL"
>>> result("O=C(NCCCO)c1ccoc1")
"160 µg/mL"

I have this compound here, O=C(Nn1cnnc1)c1ccoc1 , and I need its recorded MBC.
160 µg/mL

====

Test system: Saccharomyces cerevisiae
Assay: Antimicrobial activity against Saccharomyces cerevisiae ATCC 2601 by broth microdilution method
Assay type: functional
value kind: MFC (µg/mL)
Number in µg/mL, nothing else.

>>> measured_number("O=C(Nc1nc[nH]n1)c1ccoc1")
320

Please look up its MFC: Cc1ccc(S(=O)(=O)NNC(=O)c2ccoc2)cc1
320

Which value of MFC has been reported for O=C(NCc1cccnc1)c1ccoc1 in the records?
320

Entry O=C(NCCC1CCN(Cc2ccccc2)CC1)c1ccoc1 has what MFC?
160

Could you share which MFC value was measured for O=C(Nn1cnnc1)c1ccoc1 ?
160

Given the entry O=C(NNc1ccccc1)c1ccoc1 , report its measured MFC.
320

Recorded MFC for O=C(Nc1ccccc1O)c1ccoc1 , please?
160

====

System: Aspergillus fumigatus
Test: Antimicrobial activity against Aspergillus fumigatus isolate by broth microdilution method
Assay type: functional
value kind: MIC (µg/mL)
Value expressed in µg/mL; do not type the unit.

>>> measured_number("O=C(NCCC1CCN(Cc2ccccc2)CC1)c1ccoc1")
320
>>> measured_number("O=C(NCc1ccncc1)c1ccoc1")
320
>>> measured_number("O=C(Nc1ccccc1O)c1ccoc1")
160
>>> measured_number("Cc1ccc(S(=O)(=O)NNC(=O)c2ccoc2)cc1")
320
>>> measured_number("O=C(Nc1nc[nH]n1)c1ccoc1")
320
>>> measured_number("O=C(NCCCO)c1ccoc1")
320
>>> measured_number("O=C(NCc1cccnc1)c1ccoc1")
320
>>> measured_number("O=C(NNc1ccccc1)c1ccoc1")
20

Shifting focus to the molecule that follows.
Looking for the measured MIC of C[C@@H]1[C@H](O)[C@@H](C)/C=C/C=C/C=C/C=C/C=C/C=C/C=C/[C@H](O[C@@H]2O[C@H](C)[C@@H](O)[C@H](N)[C@@H]2O)C[C@@H]2O[C@](O)(C[C@@H](O)C[C@@H](O)[C@H](O)CC[C@@H](O)C[C@@H](O)CC(=O)O[C@H]1C)C[C@H](O)[C@H]2C(=O)O , can you help?
1

====

System: Saccharomyces cerevisiae
Assay: Antimicrobial activity against Saccharomyces cerevisiae ATCC 2601 by broth microdilution method
Type: functional
Recorded MIC for the following compounds

>>> result("O=C(Nc1nc[nH]n1)c1ccoc1")
"160 µg/mL"
>>> result("OC(Cn1cncn1)(Cn1cncn1)c1ccc(F)cc1F")
"1 µg/mL"
>>> result("O=C(NNc1ccccc1)c1ccoc1")
"320 µg/mL"

Could you now look at the following compound, please?
Bench note: what MIC did O=C(NCCC1CCN(Cc2ccccc2)CC1)c1ccoc1 show?
80 µg/mL
